Listed next: entries and their corresponding fraction unbound.
# test: Plasma protein binding in mouse
# Type: ADME, cell-free
# test_settings: read-out: PPB (converted)

smiles_data	fraction unbound
COc1cc(-c2cc3c(O[C@H]4CCN(C(=O)C5CCC5)C4)ncnc3s2)cnc1OC	0.011
CCC(=O)N1CC[C@H](Nc2ncnc3c2CN(c2cnc(OC)c(C(F)(F)F)c2)CC3)C1	0.066
COc1cc(-c2cc3c(N[C@H]4CCN(C(=O)C5CCC5)C4)ncnc3s2)cnc1OC	0.01
CCC(=O)N1CC[C@H](Nc2ncnc3sc(-c4cnc(OC)c(OC)c4)cc23)C1	0.029

* * *

# test: Tmax in ICR mouse at 3 mg/kg, iv measured upto 24 hrs by LC-MS/MS analysis
# Type: ADME, organism-based
# test_settings: in vivo

smiles_data	Tmax
CCC(=O)N1CC[C@H](Nc2ncnc3sc(-c4cnc(OC)c(OC)c4)cc23)C1	4.8 min

* * *

Listed next: entries and their corresponding solubility.
# test: Solubility of the compound in PBS
# Assay type: physicochemical

smiles_data	solubility
COc1cc(-c2cc3c(O[C@H]4CCN(C(=O)C5CCC5)C4)ncnc3s2)cnc1OC	1.41 µM
CCC(=O)N1CC[C@H](Nc2ncnc3c2CN(c2cnc(OC)c(C(F)(F)F)c2)CC3)C1	57.9 µM
COc1cc(-c2cc3c(N[C@H]4CCN(C(=O)C5CCC5)C4)ncnc3s2)cnc1OC	5.67 µM
CCC(=O)N1CC[C@H](Nc2ncnc3sc(-c4cnc(OC)c(OC)c4)cc23)C1	44.5 µM

* * *

# study_target: Phosphatidylinositol 4,5-bisphosphate 3-kinase catalytic subunit alpha isoform (Homo sapiens, UniProt P42336)
# Sequence (P42336 whole entry, canonical isoform): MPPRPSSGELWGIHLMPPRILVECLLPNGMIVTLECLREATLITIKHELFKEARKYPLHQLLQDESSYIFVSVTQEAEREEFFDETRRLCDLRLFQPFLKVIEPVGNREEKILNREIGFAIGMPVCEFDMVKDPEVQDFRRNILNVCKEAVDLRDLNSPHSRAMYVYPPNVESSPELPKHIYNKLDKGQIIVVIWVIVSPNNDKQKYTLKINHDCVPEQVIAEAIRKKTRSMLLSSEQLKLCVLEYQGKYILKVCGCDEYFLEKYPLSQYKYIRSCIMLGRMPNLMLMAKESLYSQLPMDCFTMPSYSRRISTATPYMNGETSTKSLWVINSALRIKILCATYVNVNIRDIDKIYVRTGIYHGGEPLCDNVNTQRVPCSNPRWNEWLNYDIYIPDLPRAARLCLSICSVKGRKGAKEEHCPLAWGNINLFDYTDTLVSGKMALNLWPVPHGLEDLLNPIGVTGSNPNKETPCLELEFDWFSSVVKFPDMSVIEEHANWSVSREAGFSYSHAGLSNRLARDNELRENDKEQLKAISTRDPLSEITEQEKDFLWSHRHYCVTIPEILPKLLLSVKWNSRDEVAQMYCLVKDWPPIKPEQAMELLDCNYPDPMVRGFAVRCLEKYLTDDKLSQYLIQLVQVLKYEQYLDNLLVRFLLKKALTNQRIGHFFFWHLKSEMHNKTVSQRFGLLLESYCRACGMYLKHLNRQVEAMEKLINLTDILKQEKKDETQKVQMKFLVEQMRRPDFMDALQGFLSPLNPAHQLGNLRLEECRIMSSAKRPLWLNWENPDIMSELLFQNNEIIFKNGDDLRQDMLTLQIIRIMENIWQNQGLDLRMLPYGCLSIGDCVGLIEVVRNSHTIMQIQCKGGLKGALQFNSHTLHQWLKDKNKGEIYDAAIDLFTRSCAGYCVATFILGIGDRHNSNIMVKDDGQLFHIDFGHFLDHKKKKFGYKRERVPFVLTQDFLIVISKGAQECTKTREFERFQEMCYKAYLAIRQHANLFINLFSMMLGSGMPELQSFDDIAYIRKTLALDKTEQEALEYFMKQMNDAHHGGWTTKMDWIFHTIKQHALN
# test: Inhibition of PI3Kalpha (unknown origin) using PIP2 as substrate measured after 1 hr in presence of ATP by ADP-glo luminescence assay
recorded_metric: IC50 (µM)

smiles_data	recorded_metric	units_symbol	value_qualifier	val
CCC(=O)N1CC[C@H](Nc2ncnc3sc(-c4cnc(OC)c(C(F)(F)F)c4)cc23)C1	IC50	µM	=	2.06
COc1cc(-c2cc3c(N[C@H]4CCN(C(=O)C5CCCC5)C4)ncnc3s2)cnc1OC	IC50	µM	=	0.483
COc1cc(-c2cc3c(O[C@H]4CCN(C(=O)C5CCC5)C4)ncnc3s2)cnc1OC	IC50	µM	=	0.392
CCC(=O)N1CC[C@H](Nc2ncnc3sc(-c4cnc(OC)nc4)cc23)C1	IC50	µM	=	2.58
CCC(=O)N1CC[C@H](Nc2ncnc3sc(-c4ccc(S(C)(=O)=O)cc4)cc23)C1	IC50	µM	>	10
CCC(=O)N1CC[C@H](Oc2ncnc3sc(-c4cnc(OC)c(OC)c4)cc23)C1	IC50	µM	=	0.428
CCC(=O)N1CC[C@H](Nc2ncnc3sc(-c4ccc(C#N)nc4)cc23)C1	IC50	µM	>	1
COc1cc(-c2cc3c(O[C@H]4CCN(C(=O)C(C)C)C4)ncnc3s2)cnc1OC	IC50	µM	=	0.411
CCCC(=O)N1CC[C@H](Nc2ncnc3sc(-c4cnc(OC)c(OC)c4)cc23)C1	IC50	µM	=	0.363
COc1cc(-c2cc3c(N[C@H]4CCN(C(=O)C5CCC5)C4)ncnc3s2)cnc1OC	IC50	µM	=	0.172
CCC(=O)N1CC[C@H](Nc2ncnc3sc(-c4cccc(S(C)(=O)=O)c4)cc23)C1	IC50	µM	=	3.07
CCC(=O)N1CC[C@H](Nc2ncnc3sc(-c4ccc(OC)nc4)cc23)C1	IC50	µM	=	2.9
CCC(=O)N1CC[C@H](Oc2ncnc3sc(-c4cnc(OC)c(F)c4)cc23)C1	IC50	µM	=	7.86
COc1cc(-c2cc3c(N[C@H]4CCN(C(=O)C5CCCCC5)C4)ncnc3s2)cnc1OC	IC50	µM	=	0.718
COc1cc(-c2cc3c(N[C@H]4CCN(C(=O)c5ccccc5)C4)ncnc3s2)cnc1OC	IC50	µM	=	0.395
COc1cc(-c2cc3c(N[C@H]4CCN(C(=O)C(C)C)C4)ncnc3s2)cnc1OC	IC50	µM	=	0.241

* * *

Listed next: entries and their corresponding half-life.
# test: Microsomal stability in mouse liver microsomes assessed as half life
# Format: ADME, Microsome

smiles_data	half-life [min]
COc1cc(-c2cc3c(O[C@H]4CCN(C(=O)C5CCC5)C4)ncnc3s2)cnc1OC	5.09
COc1cc(-c2cc3c(N[C@H]4CCN(C(=O)C5CCC5)C4)ncnc3s2)cnc1OC	15.9
CCC(=O)N1CC[C@H](Nc2ncnc3c2CN(c2cnc(OC)c(C(F)(F)F)c2)CC3)C1	15.4
CCC(=O)N1CC[C@H](Nc2ncnc3sc(-c4cnc(OC)c(OC)c4)cc23)C1	90.5

* * *

# test: Half life in ICR mouse at 3 mg/kg, iv measured upto 24 hrs by LC-MS/MS analysis
# Type: ADME, organism-based
# test_settings: in vivo
recorded_metric: half-life (h)

smiles_data	recorded_metric	val
CCC(=O)N1CC[C@H](Nc2ncnc3sc(-c4cnc(OC)c(OC)c4)cc23)C1	half-life	1.73

* * *

# study_target: Phosphatidylinositol 4,5-bisphosphate 3-kinase catalytic subunit delta isoform (Homo sapiens, UniProt O00329)
# test: Inhibition of PI3Kdelta in IgM stimulated human Raji cells incubated for 10 mins by AlphaLISA assay
# Assay type: cell-based
Listed next: entries and their corresponding IC50.
recorded_metric: IC50 (µM)

smiles_data	val
COc1cc(-c2cc3c(O[C@H]4CCN(C(=O)C5CCC5)C4)ncnc3s2)cnc1OC	0.0757
CCC(=O)N1CC[C@H](Nc2ncnc3sc(-c4cnc(OC)c(OC)c4)cc23)C1	0.137
COc1cc(-c2cc3c(N[C@H]4CCN(C(=O)C5CCC5)C4)ncnc3s2)cnc1OC	0.0337

* * *

# study_target: Phosphatidylinositol 4,5-bisphosphate 3-kinase catalytic subunit delta isoform (Homo sapiens, UniProt O00329)
# Sequence (O00329 whole entry): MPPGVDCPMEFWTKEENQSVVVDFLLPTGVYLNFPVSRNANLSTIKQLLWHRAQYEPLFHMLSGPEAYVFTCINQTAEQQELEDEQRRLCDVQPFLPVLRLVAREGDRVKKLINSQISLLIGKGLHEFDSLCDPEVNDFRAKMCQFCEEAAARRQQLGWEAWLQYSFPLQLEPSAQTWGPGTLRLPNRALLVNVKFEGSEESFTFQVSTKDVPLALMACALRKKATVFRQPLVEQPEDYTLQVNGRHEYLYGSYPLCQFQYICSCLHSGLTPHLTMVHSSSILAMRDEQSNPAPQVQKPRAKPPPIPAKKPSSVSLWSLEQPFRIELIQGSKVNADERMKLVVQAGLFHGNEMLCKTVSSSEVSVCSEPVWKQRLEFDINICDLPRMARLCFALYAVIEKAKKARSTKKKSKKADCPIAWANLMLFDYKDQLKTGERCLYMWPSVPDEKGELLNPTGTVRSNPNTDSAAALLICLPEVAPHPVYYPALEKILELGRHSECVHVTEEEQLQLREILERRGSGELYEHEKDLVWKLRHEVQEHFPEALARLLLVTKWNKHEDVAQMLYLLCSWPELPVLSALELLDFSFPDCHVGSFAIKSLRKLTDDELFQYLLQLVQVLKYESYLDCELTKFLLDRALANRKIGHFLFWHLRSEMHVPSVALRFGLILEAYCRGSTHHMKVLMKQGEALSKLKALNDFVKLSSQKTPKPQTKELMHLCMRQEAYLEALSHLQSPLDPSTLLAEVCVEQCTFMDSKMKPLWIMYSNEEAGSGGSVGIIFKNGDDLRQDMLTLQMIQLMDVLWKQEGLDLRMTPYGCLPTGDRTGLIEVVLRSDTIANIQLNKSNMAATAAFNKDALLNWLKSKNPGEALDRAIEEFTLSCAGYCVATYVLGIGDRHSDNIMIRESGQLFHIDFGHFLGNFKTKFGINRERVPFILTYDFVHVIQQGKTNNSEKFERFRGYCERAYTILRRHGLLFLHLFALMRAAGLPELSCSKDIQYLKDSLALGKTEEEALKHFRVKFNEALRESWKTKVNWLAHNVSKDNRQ
# test: Inhibition of PI3Kdelta (unknown origin) using PIP2 as substrate measured after 1 hr in presence of ATP by ADP-glo luminescence assay
pIC50: −log10 of the molar value.
Is pIC50 at least 7? Then T. If not, F.

smiles_data	group
CCC(=O)N1CC[C@H](Nc2ncnc3sc(-c4cnc(OC)c(C)c4)cc23)C1	T
COc1cc(-c2cc3c(O[C@H]4CCN(C(=O)C(C)C)C4)ncnc3s2)cnc1OC	T
COc1cc(-c2cc3c(N[C@H]4CCN(C(=O)C5CCCCC5)C4)ncnc3s2)cnc1OC	T
COc1cc(-c2cc3c(N[C@H]4CCN(C(=O)C5CCC5)C4)ncnc3s2)cnc1OC	T
CCC(=O)N1CC[C@H](Oc2ncnc3sc(-c4cnc(OC)c(OC)c4)cc23)C1	T
COc1cc(-c2cc3c(N[C@H]4CCN(C(=O)C(C)(C)C)C4)ncnc3s2)cnc1OC	T
CCC(=O)N1CC[C@H](Oc2ncnc3sc(-c4cnc(OC)c(C(F)(F)F)c4)cc23)C1	F
CCC(=O)N1CC[C@H](Nc2ncnc3sc(-c4cnc(OC)c(C#N)c4)cc23)C1	T
CCC(=O)N1CC[C@H](Nc2ncnc3sc(-c4ccc(OC)c(F)c4)cc23)C1	F
CCC(=O)N1CC[C@H](Nc2ncnc3sc(-c4cnc(OC)c(F)c4)cc23)C1	T
CCC(=O)N1CC[C@H](Nc2ncnc3sc(-c4cnc(OC)c(OC)c4)cc23)C1	T
COc1cc(-c2cc3c(N[C@H]4CCN(C(=O)c5ccccc5)C4)ncnc3s2)cnc1OC	T
COc1cc(-c2cc3c(N[C@H]4CCN(C(=O)C5CC5)C4)ncnc3s2)cnc1OC	T
CCC(=O)N1CC[C@H](Nc2ncnc3sc(-c4cnc(OC)nc4)cc23)C1	T
CCCC(=O)N1CC[C@H](Nc2ncnc3sc(-c4cnc(OC)c(OC)c4)cc23)C1	T
CCC(=O)N1CC[C@H](Nc2ncnc3sc(-c4cncc(S(C)(=O)=O)c4)cc23)C1	T
CCC(=O)N1CC[C@H](Nc2ncnc3sc(-c4ccc(F)c(C#N)c4)cc23)C1	F
CCC(=O)N1CC[C@H](Nc2ncnc3sc(-c4ccc(S(C)(=O)=O)cc4)cc23)C1	F
